# Tested on: HCC 2998
# measurement_description: NCI tumour cell line growth inhibition, 48 h
Calls of active or inactive are those of the source. Cut-off read from the data, not from the text of the source: active = GI50 up to about 1.1 µM and inactive = higher.

{"compound": "CC1=NC(C)(C)N(O)C1(C)C", "GI50": "> 100 µM (inactive)"}
{"compound": "N[C@]1(C(=O)O)C[C@@H]2C(Br)=NO[C@@H]2C1", "GI50": "> 100 µM (inactive)"}
{"compound": "CC12ON(P(=O)(c3ccccc3)c3ccccc3)C(C)(c3ccccc31)c1ccccc12", "GI50": "> 100 µM (inactive)"}
{"compound": "O=C1C=CC(=O)c2c1cc1ccccc1c2O", "GI50": "17.7 µM (inactive)"}
{"compound": "CCCCCCCCOC1C(O)C(O)C(O)C(O)C12CO2 (stereo not drawn)", "GI50": "68.5 µM (inactive)"}
{"compound": "Cc1ccc(C(=O)/C=C(\\O)C(=O)NN=C(c2ccccc2)c2ccccc2)cc1", "GI50": "80 µM (inactive)"}
{"compound": "NN=C(S)Nc1cccc(Cl)c1", "GI50": "64.7 µM (inactive)"}
{"compound": "COc1cc(C2(C)SCCCS2)cc(OC)c1OC", "GI50": "> 100 µM (inactive)"}
{"compound": "NC(=O)N/N=C(\\CC1OC(=O)c2ccccc21)c1ccco1 (stereo not drawn)", "GI50": "> 100 µM (inactive)"}
{"compound": "Cc1ccc(/C=N/Nc2ccccn2)s1", "GI50": "> 100 µM (inactive)"}
{"compound": "Oc1cc(O)c2c(c1)O[C@H](c1cc(O)c(O)c(O)c1)[C@H](O)C2 [EPIGALLOCATECHIN]", "GI50": "> 10 µM (inactive)"}
{"compound": "CC1CC2(OC2C)C(=O)OC2CCN(C)C/C=C(/COC(=O)C1(C)O)C2=O (stereo not drawn)", "GI50": "> 100 µM (inactive)"}
{"compound": "CCCCCCC1NN(C(C)=O)C(CCCCCC)NN1C(C)=O (stereo not drawn)", "GI50": "> 100 µM (inactive)"}
{"compound": "CC(=O)c1[nH]c(Nc2ccc(C)cc2)c(C(=S)Nc2ccccc2)c1N", "GI50": "18.6 µM (inactive)"}
{"compound": "CN(C)/C=C/c1ccnc2c1C(=O)c1ccccc1C2=O", "GI50": "7.64 µM (inactive)"}
{"compound": "COc1cc2c(cc1OCc1ccccc1)NC(=O)[C@@H]1CCCN1C2=O", "GI50": "> 100 µM (inactive)"}
{"compound": "CC(C)(C)OC(=O)N[C@H]1CCN(C2CCCCC2)C1=O", "GI50": "> 100 µM (inactive)"}
{"compound": "N/C(=N\\O)N/N=C/c1cc2c(cc1Cl)OCO2", "GI50": "26 µM (inactive)"}

* * *

# Test system: CCRF-CEM
# measurement_description: NCI tumour cell line growth inhibition, 48 h
Activity calls are given as the source filed them. Cut-off read from the data, not from the text of the source: active = GI50 up to about 1.1 µM and inactive = higher.
Reported GI50 values are given for each entry in this list.
experimental_endpoint: GI50

{"molecule": "N#CCCN(CCN(CCC#N)C(=O)Nc1ccccc1)C(=O)Nc1ccccc1", "experimental_endpoint": "GI50", "result": "> 100 µM (inactive)"}
{"molecule": "Cc1ccc(S(=O)(=O)OCCOCCOCCOCCOCCOS(=O)(=O)c2ccc(C)cc2)cc1", "experimental_endpoint": "GI50", "result": "21.4 µM (inactive)"}
{"molecule": "Cc1csc(CCC(N)C(=O)O)n1 (configuration not stated)", "experimental_endpoint": "GI50", "result": "> 100 µM (inactive)"}
{"molecule": "Cc1n2nc(N)sc2n[n+]1Cc1ccccc1", "experimental_endpoint": "GI50", "result": "> 100 µM (inactive)"}
{"molecule": "CC1CC2(OC2C)C(=O)OC2CCN(C)C/C=C(/COC(=O)C1(C)O)C2=O (configuration not stated)", "experimental_endpoint": "GI50", "result": "> 100 µM (inactive)"}
{"molecule": "Nc1ccc2cc(S(=O)(=O)O)cc(O)c2c1/N=N/c1ccc(NC(=O)Nc2ccc(/N=N/c3c(N)ccc4cc(S(=O)(=O)O)cc(O)c34)c(S(=O)(=O)O)c2)cc1S(=O)(=O)O", "experimental_endpoint": "GI50", "result": "> 69.3 µM (inactive)"}
{"molecule": "CC1=NC(C)(C)N(O)C1(C)C", "experimental_endpoint": "GI50", "result": "> 100 µM (inactive)"}
{"molecule": "CCCCCCCCCc1c(O)c(O)c(CCCCCCCCC)c(CCCCCCCCC)c1CCCCCCCCC", "experimental_endpoint": "GI50", "result": "31 µM (inactive)"}
{"molecule": "CCOC(=O)C(=O)Nc1ccc([N+](=O)[O-])cc1C#N", "experimental_endpoint": "GI50", "result": "> 100 µM (inactive)"}
{"molecule": "CN(CC(=O)O)c1ncc2c(n1)-c1ccccc1OC2c1ccccc1 (configuration not stated)", "experimental_endpoint": "GI50", "result": "44.3 µM (inactive)"}
{"molecule": "Cc1ccc(C(=O)C(C)N)cc1 (configuration not stated)", "experimental_endpoint": "GI50", "result": "> 100 µM (inactive)"}
{"molecule": "COc1ccc(C(=O)c2c3cc(OC)c(OC)c(OC)c3cc[n+]2C)cc1", "experimental_endpoint": "GI50", "result": "20.9 µM (inactive)"}
